Target: MAb 445-1
Test: MAb inhibition ELISA; soluble inhibitor of MAb binding to coated hG34(16-34)-Gly 35-BSA
Where no end group is shown, it is not given here. [ ]: non-standard residue; d: D form. pGlu = O=C1CC[C@@H](C(=O)O)N1
Let's look at some binders and their measured pIC50.
pIC50 (log units): -log10 of the concentration in mol/L.

[[record]]
binder = "CPPPPSSYGWMDFG [hG17 (12-17)-Gly18 peptide (immunogen peptide …)]"
attribute_measured = "pIC50"
reported_value = 5.40


Query: pIC50 lookup needed for [pGlu]GPWLEEEEEAYGWMDFG [human glycine-extended gastrin-17 (G17-Gly)] , thanks.
Response: 6.15
